Entries and their Maximum % Proliferation
Assayed system: T1, ARG2 (Homo sapiens, UniProt P78540)
T1 sequence (P78540 23-354): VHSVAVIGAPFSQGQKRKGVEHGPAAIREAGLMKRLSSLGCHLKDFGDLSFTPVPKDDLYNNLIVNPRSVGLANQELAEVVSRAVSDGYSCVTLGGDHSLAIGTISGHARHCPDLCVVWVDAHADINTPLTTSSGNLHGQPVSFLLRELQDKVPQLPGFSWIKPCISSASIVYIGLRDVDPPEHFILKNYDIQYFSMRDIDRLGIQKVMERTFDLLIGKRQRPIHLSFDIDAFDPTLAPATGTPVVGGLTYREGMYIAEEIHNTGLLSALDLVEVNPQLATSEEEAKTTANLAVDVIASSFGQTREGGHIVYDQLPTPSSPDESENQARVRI
Protocol description: T cell proliferation assay (BrdU, 96 hours) with exogenous ARG2, improved variant IgGs
Type: cell-based
Measurement parameters: In Absence of rhARG2; 96 hours; hIgG1
The response must be a number in % with no trailing unit.

Query: Identify Maximum % Proliferation associated with the molecule C0021092: anti-ARG2 antibody, VH SEQ ID NO: 92, VL SEQ ID NO: 97 (antibody, listed as Homo sapiens, V domains shown, C0021092) VH: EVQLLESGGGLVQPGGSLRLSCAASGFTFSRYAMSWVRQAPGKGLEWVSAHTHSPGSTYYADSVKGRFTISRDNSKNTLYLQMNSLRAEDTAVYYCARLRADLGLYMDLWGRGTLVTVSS VL: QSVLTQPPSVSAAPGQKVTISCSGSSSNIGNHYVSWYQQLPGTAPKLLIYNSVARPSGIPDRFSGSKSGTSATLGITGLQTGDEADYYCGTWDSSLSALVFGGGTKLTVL
Reply: 92

More entries:
Query: Fill in Maximum % Proliferation for record C0021061: anti-ARG2 antibody, first generation lead, VH SEQ ID NO: 62, VL SEQ ID NO: 67 (antibody, listed as Homo sapiens, V domains shown, C0021061) VH: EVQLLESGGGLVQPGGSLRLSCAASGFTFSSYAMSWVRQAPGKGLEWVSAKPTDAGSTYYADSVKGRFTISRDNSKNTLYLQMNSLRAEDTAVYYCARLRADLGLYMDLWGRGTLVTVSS VL: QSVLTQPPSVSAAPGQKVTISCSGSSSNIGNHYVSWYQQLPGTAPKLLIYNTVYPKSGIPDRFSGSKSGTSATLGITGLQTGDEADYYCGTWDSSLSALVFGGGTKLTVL
Reply: 99
